- Tested system: Nicotinic acetylcholine receptor alpha 5 subunit (Musca domestica) (UniProt A9XFY4)
- Sequence (A9XFY4 as listed by the source): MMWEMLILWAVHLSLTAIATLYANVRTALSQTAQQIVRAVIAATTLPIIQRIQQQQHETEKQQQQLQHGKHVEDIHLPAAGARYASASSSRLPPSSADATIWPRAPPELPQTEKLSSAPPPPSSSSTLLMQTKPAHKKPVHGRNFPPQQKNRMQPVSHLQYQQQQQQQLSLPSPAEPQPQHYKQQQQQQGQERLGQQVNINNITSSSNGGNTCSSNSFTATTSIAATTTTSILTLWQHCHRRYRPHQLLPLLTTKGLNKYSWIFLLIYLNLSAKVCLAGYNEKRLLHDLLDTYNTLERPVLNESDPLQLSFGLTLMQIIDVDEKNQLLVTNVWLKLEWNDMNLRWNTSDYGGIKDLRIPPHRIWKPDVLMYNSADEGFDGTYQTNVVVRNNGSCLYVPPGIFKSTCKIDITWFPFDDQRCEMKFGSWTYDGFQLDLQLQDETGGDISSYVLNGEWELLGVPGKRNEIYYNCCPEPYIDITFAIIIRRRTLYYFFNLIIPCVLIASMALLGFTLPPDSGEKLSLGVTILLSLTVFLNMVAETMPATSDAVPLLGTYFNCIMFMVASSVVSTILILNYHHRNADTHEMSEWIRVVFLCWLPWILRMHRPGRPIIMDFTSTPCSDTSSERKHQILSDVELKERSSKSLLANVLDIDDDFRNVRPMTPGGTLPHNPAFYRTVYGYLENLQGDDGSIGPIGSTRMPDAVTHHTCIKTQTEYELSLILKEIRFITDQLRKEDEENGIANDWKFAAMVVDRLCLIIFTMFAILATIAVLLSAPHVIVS
- Method description: Displacement of [3H]imidacloprid from Musca domestica (house fly)-head membrane nAChR relative to N,N'-(3,3'-(hexane-1,6-diyl)bis(1-((6-chloropyridin-3-yl)methyl)imidazolidin-3-yl-2-ylidene))dinitramide
Measurement type: Ratio

* O=[N+]([O-])/N=C1\NCCN1Cc1ccc(Cl)nc1 [IMIDACLOPRID] | 160
* O=[N+]([O-])/N=C1/N(CCCOCCCN2CCN(Cc3ccc(Cl)nc3)/C2=N/[N+](=O)[O-])CCN1Cc1ccc(Cl)nc1 | 0.042
* O=[N+]([O-])/N=C1\N(CCCCCCCCCCN2CCN(Cc3ccc(Cl)nc3)/C2=N/[N+](=O)[O-])CCN1Cc1ccc(Cl)nc1 | 0.11
* O=[N+]([O-])/N=C1\N(CCN2CCN(Cc3ccc(Cl)nc3)/C2=N/[N+](=O)[O-])CCN1Cc1ccc(Cl)nc1 | 0.028

----------
- Test system: Periplaneta americana
- Method description: Insecticidal activity against Periplaneta americana (American cockroach) assessed as killing compound injected into abdomen of cockroach after 24 hr in presence of 50 ug piperonyl butoxide oxidative metabolism inhibitor and 50 ug propargyl propyl benzenephosphonate inhibitor of hydrolytic measured per insect relative to compound alone
- Type: functional
Measurement type: Ratio

- O=[N+]([O-])/N=C1/N(CCCOCCCN2CCN(Cc3ccc(Cl)nc3)/C2=N/[N+](=O)[O-])CCN1Cc1ccc(Cl)nc1: 20
- O=[N+]([O-])/N=C1/N(CCCCCN2CCN(Cc3ccc(Cl)nc3)/C2=N/[N+](=O)[O-])CCN1Cc1ccc(Cl)nc1: 24
- O=[N+]([O-])/N=C1\N(CCCCN2CCN(Cc3ccc(Cl)nc3)/C2=N/[N+](=O)[O-])CCN1Cc1ccc(Cl)nc1: 2
- O=[N+]([O-])/N=C1/N(Cc2ccc(Cl)nc2)CCN1Cc1cccc(N2CCN(Cc3ccc(Cl)nc3)/C2=N\[N+](=O)[O-])c1: 20
- O=[N+]([O-])/N=C1\N(CCN2CCN(Cc3ccc(Cl)nc3)/C2=N/[N+](=O)[O-])CCN1Cc1ccc(Cl)nc1: 8
- O=[N+]([O-])/N=C1\N(Cc2ccc(N3CCN(Cc4ccc(Cl)nc4)/C3=N\[N+](=O)[O-])cc2)CCN1Cc1ccc(Cl)nc1: 50
- O=[N+]([O-])/N=C1/N(CCCCCCCN2CCN(Cc3ccc(Cl)nc3)/C2=N/[N+](=O)[O-])CCN1Cc1ccc(Cl)nc1: 13

----------
- System: Periplaneta americana
- Method description: Insecticidal activity against Periplaneta americana (American cockroach) assessed as killing compound injected into abdomen of cockroach after 24 hr in presence of 50 ug piperonyl butoxide oxidative metabolism inhibitor and 50 ug propargyl propyl benzenephosphonate inhibitor of hydrolytic measured per insect relative to compound alone
- Assay type: functional
Measured Ratio values are reported for all entries that follow.
Measurement type: Ratio

* O=[N+]([O-])/N=C1\N(CCCCCCCCN2CCN(Cc3ccc(Cl)nc3)/C2=N/[N+](=O)[O-])CCN1Cc1ccc(Cl)nc1 | 26
* O=[N+]([O-])/N=C1/N(CCCN2CCN(Cc3ccc(Cl)nc3)/C2=N/[N+](=O)[O-])CCN1Cc1ccc(Cl)nc1 | 6
* O=[N+]([O-])/N=C1\N(CC#CCN2CCN(Cc3ccc(Cl)nc3)/C2=N/[N+](=O)[O-])CCN1Cc1ccc(Cl)nc1 | 12
* O=[N+]([O-])/N=C1\N(CCCCCCN2CCN(Cc3ccc(Cl)nc3)/C2=N/[N+](=O)[O-])CCN1Cc1ccc(Cl)nc1 | 8
* O=[N+]([O-])/N=C1\N(C/C=C/CN2CCN(Cc3ccc(Cl)nc3)/C2=N/[N+](=O)[O-])CCN1Cc1ccc(Cl)nc1 | 20
* O=[N+]([O-])/N=C1/N(CCCCCCCCCN2CCN(Cc3ccc(Cl)nc3)/C2=N/[N+](=O)[O-])CCN1Cc1ccc(Cl)nc1 | 16
* O=[N+]([O-])/N=C1\N(CCCCCCCCCCN2CCN(Cc3ccc(Cl)nc3)/C2=N/[N+](=O)[O-])CCN1Cc1ccc(Cl)nc1 | 16
* O=[N+]([O-])/N=C1\NCCN1Cc1ccc(Cl)nc1 [IMIDACLOPRID] | 36

----------
- Tested system: Nicotinic acetylcholine receptor alpha 5 subunit (Musca domestica)
- Sequence (A9XFY4 whole entry): as the sequence (A9XFY4 as listed by the source) above
- Method description: Displacement of [3H]imidacloprid from Musca domestica (house fly)-head membrane nAChR
Measured IC50 values are reported for all entries that follow.
Measurement type: IC50

- O=[N+]([O-])/N=C1/N(CCCOCCCN2CCN(Cc3ccc(Cl)nc3)/C2=N/[N+](=O)[O-])CCN1Cc1ccc(Cl)nc1: 73 µM
- O=[N+]([O-])NC1=NCCN1Cc1ccc(Cl)nc1: 0.02 µM
- O=[N+]([O-])/N=C1\N(CCN2CCN(Cc3ccc(Cl)nc3)/C2=N/[N+](=O)[O-])CCN1Cc1ccc(Cl)nc1: 110 µM
- O=[N+]([O-])/N=C1\N(CCCCCCN2CCN(Cc3ccc(Cl)nc3)/C2=N/[N+](=O)[O-])CCN1Cc1ccc(Cl)nc1: 3.1 µM
- O=[N+]([O-])/N=C1\N(CCCCCCCCCCN2CCN(Cc3ccc(Cl)nc3)/C2=N/[N+](=O)[O-])CCN1Cc1ccc(Cl)nc1: 27 µM

----------
Measured MLD values are reported for all entries that follow.
- System: Periplaneta americana
- Method description: Insecticidal activity against Periplaneta americana (American cockroach) assessed as killing compound injected into abdomen of cockroach after 24 hr in presence of 50 ug piperonyl butoxide oxidative metabolism inhibitor and 50 ug propargyl propyl benzenephosphonate inhibitor of hydrolytic measured per insect
- Type: functional
Measurement type: MLD (nmol)

- O=[N+]([O-])/N=C1/N(CCCN2CCN(Cc3ccc(Cl)nc3)/C2=N/[N+](=O)[O-])CCN1Cc1ccc(Cl)nc1: 0.79
- O=[N+]([O-])/N=C1\NCCN1Cc1ccc(Cl)nc1: 0.07
- O=[N+]([O-])/N=C1\N(CCN2CCN(Cc3ccc(Cl)nc3)/C2=N/[N+](=O)[O-])CCN1Cc1ccc(Cl)nc1: 1.1
- O=[N+]([O-])/N=C1/N(Cc2ccc(Cl)nc2)CCN1Cc1cccc(N2CCN(Cc3ccc(Cl)nc3)/C2=N\[N+](=O)[O-])c1: 1
- O=[N+]([O-])/N=C1\N(CCCCCCCCCCN2CCN(Cc3ccc(Cl)nc3)/C2=N/[N+](=O)[O-])CCN1Cc1ccc(Cl)nc1: 0.23
- O=[N+]([O-])/N=C1\N(CC#CCN2CCN(Cc3ccc(Cl)nc3)/C2=N/[N+](=O)[O-])CCN1Cc1ccc(Cl)nc1: 0.3
- O=[N+]([O-])/N=C1\N(Cc2ccc(N3CCN(Cc4ccc(Cl)nc4)/C3=N\[N+](=O)[O-])cc2)CCN1Cc1ccc(Cl)nc1: 0.54
- O=[N+]([O-])/N=C1/N(CCCCCCCN2CCN(Cc3ccc(Cl)nc3)/C2=N/[N+](=O)[O-])CCN1Cc1ccc(Cl)nc1: 0.22
- O=[N+]([O-])/N=C1/N(CCCOCCCN2CCN(Cc3ccc(Cl)nc3)/C2=N/[N+](=O)[O-])CCN1Cc1ccc(Cl)nc1: 0.3
- O=[N+]([O-])/N=C1\N(CCCCN2CCN(Cc3ccc(Cl)nc3)/C2=N/[N+](=O)[O-])CCN1Cc1ccc(Cl)nc1: 6.5
- O=[N+]([O-])/N=C1/N(CCCCCN2CCN(Cc3ccc(Cl)nc3)/C2=N/[N+](=O)[O-])CCN1Cc1ccc(Cl)nc1: 0.16
- O=[N+]([O-])/N=C1/N(CCCCCCCCCN2CCN(Cc3ccc(Cl)nc3)/C2=N/[N+](=O)[O-])CCN1Cc1ccc(Cl)nc1: 0.17
- O=[N+]([O-])/N=C1\N(CCCCCCCCN2CCN(Cc3ccc(Cl)nc3)/C2=N/[N+](=O)[O-])CCN1Cc1ccc(Cl)nc1: 0.17
- O=[N+]([O-])/N=C1\N(CCCCCCN2CCN(Cc3ccc(Cl)nc3)/C2=N/[N+](=O)[O-])CCN1Cc1ccc(Cl)nc1: 0.29
- O=[N+]([O-])/N=C1\N(C/C=C/CN2CCN(Cc3ccc(Cl)nc3)/C2=N/[N+](=O)[O-])CCN1Cc1ccc(Cl)nc1: 1.5

----------
- Test system: Periplaneta americana
- Method description: Insecticidal activity against Periplaneta americana (American cockroach) assessed as killing compound injected into abdomen of cockroach after 24 hr in presence of 50 ug propargyl propyl benzenephosphonate inhibitor of hydrolytic metabolism of tetramethrin pyrethroid measured per insect
- Type: functional
Measurement type: log10 MLD (log10 of the value in nmol)

• O=[N+]([O-])/N=C1\N(CCN2CCN(Cc3ccc(Cl)nc3)/C2=N/[N+](=O)[O-])CCN1Cc1ccc(Cl)nc1 = 0.34
• O=[N+]([O-])/N=C1\N(CCCCCCN2CCN(Cc3ccc(Cl)nc3)/C2=N/[N+](=O)[O-])CCN1Cc1ccc(Cl)nc1 = -0.66
• O=[N+]([O-])/N=C1\N(Cc2ccc(N3CCN(Cc4ccc(Cl)nc4)/C3=N\[N+](=O)[O-])cc2)CCN1Cc1ccc(Cl)nc1 = 0.43
• O=[N+]([O-])/N=C1\NCCN1Cc1ccc(Cl)nc1 [IMIDACLOPRID] = -0.72
• O=[N+]([O-])/N=C1\N(CCCCCCCCCCN2CCN(Cc3ccc(Cl)nc3)/C2=N/[N+](=O)[O-])CCN1Cc1ccc(Cl)nc1 = -0.72
• O=[N+]([O-])/N=C1/N(CCCOCCCN2CCN(Cc3ccc(Cl)nc3)/C2=N/[N+](=O)[O-])CCN1Cc1ccc(Cl)nc1 = -0.52
